test system: HIV-1 NL4-3; assay: PBMC spreading infection assay; format: cell-based; settings: Human immunodeficiency virus 1, NL43, PBMC; PHA-activated PBMCs; HIV-1 NL4-3, MOI 0.008; 96 h
ATTRIBUTE MEASURED: EC50

Request: Recorded EC50 for COc1cc(C)c(/C=C/C2NCCc3cc(OCc4ccccc4)c(OC)cc32)cc1OC (stereo not shown) [PAV-206] , please?
Response: 75 nM

----------
test: in vitro; type: cell-based; details: human
ATTRIBUTE MEASURED: CC50 (nM)
Quick reminder: number only, in nM, skip the unit.

Request: Recorded CC50 for COc1cc(C)c(/C=C/C2NCCc3cc(OCc4ccccc4)c(OC)cc32)cc1OCc1ccccc1 (stereo not shown) , please?
Response: 1600

These measurements were taken from paper PMC7925099.
